Values were extracted from patent US4839374A.

# Tested on: compound 48/80-induced lethality
# Assay name: Protection of rats from compound 48/80-induced lethality
# Type: in vivo, rats of an inbred Wistar strain
# Setup conditions: Rattus norvegicus, 4 h, read-out: Compound 48/80 lethality test in rats ED50, s.c. or p.o. 1 h before compound 48/80 0.5 mg/kg i.v.; protection of 50% of animals, survival after 4 hours
For each record, check the reported ED50: if it is below 0.04 mg/kg write criterion met, else write criterion not met.

Examples with answers:
[[record]]
entry_smiles = "COc1ccc(CCN2CCC(Cc3nc4ccccc4n3Cc3cnccn3)CC2)cc1"
target_of_assay = "compound 48/80-induced lethality"
classification = "criterion not met"

[[record]]
entry_smiles = "Fc1ccc(Cn2c(SC3CCN(CCOc4ncccn4)CC3)nc3ccccc32)cc1"
target_of_assay = "compound 48/80-induced lethality"
classification = "criterion not met"

[[record]]
entry_smiles = "Fc1ccc(Cn2c(CC3CCN(CCNc4nc5ccccc5[nH]4)CC3)nc3ccccc32)cc1"
target_of_assay = "compound 48/80-induced lethality"
classification = "criterion not met"

[[record]]
entry_smiles = "O=C(NCCN1CCC(Cc2nc3ccccc3n2Cc2ccc(F)cc2)CC1)c1ccoc1"
target_of_assay = "compound 48/80-induced lethality"
classification = "criterion met"

[[record]]
entry_smiles = "c1ccc(Cn2c(CC3CCN(CCNc4ncccn4)CC3)nc3ccccc32)cc1"
target_of_assay = "compound 48/80-induced lethality"
classification = "criterion met"


Is ED50 of c1cnc(NCCN2CCC(Cc3nc4ccccc4n3Cc3cscn3)CC2)nc1 strictly below 0.04 mg/kg? criterion met

Is ED50 of CC(=O)N(CCN1CCC(Cc2nc3ccccc3n2Cc2ccc(F)cc2)CC1)c1ncccn1 strictly below 0.04 mg/kg? criterion met

Is ED50 of COc1ccc(Cn2c(CC3CCN(CCO)CC3)nc3ccccc32)cc1 strictly below 0.04 mg/kg? criterion met

Is ED50 of Fc1ccc(Cn2c(CC3CCN(C4CCN(c5ncccn5)CC4)CC3)nc3ccccc32)cc1 strictly below 0.04 mg/kg? criterion not met

Is ED50 of Cn1ccnc1NCCN1CCC(Cc2nc3ccccc3n2Cc2ccc(F)cc2)CC1 strictly below 0.04 mg/kg? criterion not met

Is ED50 of S=C=NCCN1CCC(Cc2nc3ccccc3n2Cc2ccco2)CC1 strictly below 0.04 mg/kg? criterion met

Is ED50 of CN(C)C(=O)NCCN1CCC(Cc2nc3cccnc3n2Cc2ccc(F)cc2)CC1 strictly below 0.04 mg/kg? criterion not met

Is ED50 of Nc1ccccc1C(=O)NCCN1CCC(Cc2nc3ccccc3n2Cc2ccco2)CC1 strictly below 0.04 mg/kg? criterion met

Is ED50 of c1coc(Cn2c(CC3CCN(CCNc4nccs4)CC3)nc3cccnc32)c1 strictly below 0.04 mg/kg? criterion met
